Test system: Staphylococcus aureus S13E
Format: cell-based
PROPERTY_NAME: MIC (µg/mL)
The response must be a number in µg/mL with no trailing unit.

>  <COMPOUND>
CNC(CC(C)C)C(=O)NC1C(=O)NC(CC(N)=O)C(=O)NC2C(=O)NC3C(=O)NC(C(=O)NC(C(=O)O)c4cc(O)cc(O)c4-c4cc3ccc4O)C(OC3CC(C)(N)C(O)C(C)O3)c3ccc(c(Cl)c3)Oc3cc2cc(c3OC2OC(CO)C(O)C(O)C2OC2CC(C)(NCc3ccc4ccccc4n3)C(O)C(C)O2)Oc2ccc(cc2Cl)C1O (stereo not drawn)

>  <ASSAY_TARGET>
Staphylococcus aureus S13E

>  <REPORTED_MEASUREMENT>
0.125

$$$$

Next up:
Look up MIC with Staphylococcus aureus S13E for this compound: CNC(CC(C)C)C(=O)NC1C(=O)NC(CC(N)=O)C(=O)NC2C(=O)NC3C(=O)NC(C(=O)NC(C(=O)O)c4cc(O)cc(O)c4-c4cc3ccc4O)C(OC3CC(C)(N)C(O)C(C)O3)c3ccc(c(Cl)c3)Oc3cc2cc(c3OC2OC(CO)C(O)C(O)C2OC2CC(C)(NCc3c4ccccc4cc4ccccc34)C(O)C(C)O2)Oc2ccc(cc2Cl)C1O (stereo not drawn)
0.25
